# TARGET_OR_TEST_SYSTEM: ZFP SBS#914 (synthetic)
# Sequence (chain, as listed by the source): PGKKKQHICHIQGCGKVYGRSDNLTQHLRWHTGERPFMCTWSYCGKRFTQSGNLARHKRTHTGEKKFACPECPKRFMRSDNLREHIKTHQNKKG
# TEST_DESCRIPTION: EMSA
# TEST_SETTINGS: tags: MBP fusion
MEASURED_ENDPOINT: Kd (nM)
Response body: numeric value in nM, unit text excluded.

Quick one: Kd for CAGGAAAAG (dsDNA) DNA 1: CAGGAAAAG DNA 2: CTTTTCCTG ?
1.26
